Reference for the values: PubChem BioAssay (NCI)

# Test system: SF-295 CNS
# PROCEDURE TEXT: NCI tumour cell line growth inhibition, 48 h
Where a SMILES comes first, the peptide text is derived from it. [ ]: non-standard residue; d: D form. The star is where a group is joined. hSer = N[CH](CCO)C(=O)O; Boc = CC(C)(C)OC(=O)*
Each entry below carries its reported TGI.

{"COMPOUND": "Cc1cc(N(CCCl)CCCl)ccc1C=Nc1cccnc1", "TARGET SYSTEM": "SF-295 CNS", "TGI": "> 95.7 µM"}
{"COMPOUND": "NC1=CN(CCCO)C2=N/C(=C\\c3ccco3)C(=O)N12", "TARGET SYSTEM": "SF-295 CNS", "TGI": "> 100 µM"}
{"COMPOUND": "CCOC(=O)c1cc2cc(Cc3ccc4[nH]c(C(=O)OCC)cc4c3)ccc2[nH]1", "TARGET SYSTEM": "SF-295 CNS", "TGI": "55.5 µM"}
{"COMPOUND": "C/C(=N\\Nc1nc2cc(C)ccc2s1)c1ccccn1", "TARGET SYSTEM": "SF-295 CNS", "TGI": "> 40.9 µM"}
{"COMPOUND": "O=c1cc2n(c(=O)[nH]1)C1OC(C(O)C1O)[C@@H]2CCO (stereo not given in full)", "TARGET SYSTEM": "SF-295 CNS", "TGI": "> 100 µM"}
{"COMPOUND": "CCC1(O)C=CC(=O)C=C1", "TARGET SYSTEM": "SF-295 CNS", "TGI": "> 100 µM"}
{"COMPOUND": "COc1ccc(C2SCC(=O)N2N=C2NC(=O)CC(=O)N2)cc1 (stereo not given)", "TARGET SYSTEM": "SF-295 CNS", "TGI": "> 100 µM"}
{"COMPOUND": "COc1c2cc(C(C)(C)C)cc1CSCc1cc(C(C)(C)C)cc(c1OC)CCCCC2", "TARGET SYSTEM": "SF-295 CNS", "TGI": "> 50 µM"}
{"COMPOUND": "CCCCOC1CC2(c3ccc(OC)cc3)C(=O)c3ccccc3N2O1 (stereo not given)", "TARGET SYSTEM": "SF-295 CNS", "TGI": "> 100 µM"}
{"COMPOUND": "COc1cc2c(cc1OC)C1c3ccccc3C(C#N)(C2)N(C(=O)c2ccccc2)C1O (stereo not given)", "TARGET SYSTEM": "SF-295 CNS", "TGI": "> 100 µM"}
{"COMPOUND": "CCOn1cc(C[C@@]2(O)C(=O)OC3[C@@H](O)CO[C@@]32O)c2ccccc21 (stereo not given in full)", "TARGET SYSTEM": "SF-295 CNS", "TGI": "> 100 µM"}
{"COMPOUND": "COc1cc(OC)cc(N2CCC(c3c(N)nc(N)nc3Cl)CC2)c1", "TARGET SYSTEM": "SF-295 CNS", "TGI": "> 100 µM"}
{"COMPOUND": "CC(C)C1CN1CC(O)Cn1ccnc1[N+](=O)[O-] (stereo not given)", "TARGET SYSTEM": "SF-295 CNS", "TGI": "> 100 µM"}
{"COMPOUND": "N#CI1OC(=O)c2ccccc21", "TARGET SYSTEM": "SF-295 CNS", "TGI": "> 100 µM"}
{"COMPOUND": "C=C1C(=O)O[C@@H]2C[C@]3(C)[C@@H](C[C@H]12)[C@](C)(O)CC[C@@H]3O", "TARGET SYSTEM": "SF-295 CNS", "TGI": "> 100 µM"}
{"COMPOUND": "O=C1C=C(SCCO)C(=O)c2ccccc21", "TARGET SYSTEM": "SF-295 CNS", "TGI": "3 µM"}
{"COMPOUND": "Nc1cc2c(cc1[N+](=O)[O-])[nH]c1c(-c3ccccc3)nccc12", "TARGET SYSTEM": "SF-295 CNS", "TGI": "53.4 µM"}
{"COMPOUND": "O=[N+]([O-])/C(C(Cl)=C(Cl)Cl)=C1\\Nc2ccccc2O1", "TARGET SYSTEM": "SF-295 CNS", "TGI": "> 100 µM"}
{"COMPOUND": "O=C(O)CSc1n[nH]c(/C=C/c2ccccc2)n1", "TARGET SYSTEM": "SF-295 CNS", "TGI": "> 100 µM"}
{"COMPOUND": "On1c(-c2ccccc2)c(-c2c(-c3ccccc3)n(O)c3ccccc23)c2ccccc21", "TARGET SYSTEM": "SF-295 CNS", "TGI": "61.9 µM"}
{"COMPOUND": "CS(=O)(=O)C1S(=O)(=O)OCCOS1(=O)=O", "TARGET SYSTEM": "SF-295 CNS", "TGI": "> 100 µM"}
{"COMPOUND": "[N-]=N[N+]#I1OC(C(F)(F)F)(C(F)(F)F)c2ccccc21", "TARGET SYSTEM": "SF-295 CNS", "TGI": "31.2 µM"}
{"COMPOUND": "CN1CC(c2ccccc2)=Cc2c1ccc(N)c2N=N", "TARGET SYSTEM": "SF-295 CNS", "TGI": "> 100 µM"}
{"COMPOUND": "NCCC1(N)CCNCC1", "TARGET SYSTEM": "SF-295 CNS", "TGI": "> 100 µM"}
{"COMPOUND": "COc1ccc(-n2sc3ncc(-c4ccccc4)cc3c2=O)cc1", "TARGET SYSTEM": "SF-295 CNS", "TGI": "> 100 µM"}
{"COMPOUND": "Nc1nc2ncn(CCO)c2c(=O)[nH]1", "TARGET SYSTEM": "SF-295 CNS", "TGI": "> 100 µM"}
{"COMPOUND": "CCc1nc2c(O)ccc(O)c2nc1C", "TARGET SYSTEM": "SF-295 CNS", "TGI": "34.2 µM"}
{"COMPOUND": "Cc1c(/C=C2\\CC/C(=C\\c3[nH]c(C(=O)OC(C)(C)C)c(C)c3C)C2=O)[nH]c(C(=O)OC(C)(C)C)c1C", "TARGET SYSTEM": "SF-295 CNS", "TGI": "> 100 µM"}
{"COMPOUND": "O=[N+]([O-])c1ccccc1S(=O)c1ccccc1 (stereo not given)", "TARGET SYSTEM": "SF-295 CNS", "TGI": "> 100 µM"}
{"COMPOUND": "COc1nc(OC)c2c(=O)oc(-c3ccccc3)cc2n1", "TARGET SYSTEM": "SF-295 CNS", "TGI": "> 100 µM"}
{"COMPOUND": "COc1ccc(C(=O)C2CC3(CCC2(O)c2ccc(OC)cc2)CC(=O)Nc2ccccc2C3=O)cc1 (stereo not given)", "TARGET SYSTEM": "SF-295 CNS", "TGI": "> 100 µM"}
{"COMPOUND": "Fc1cccc(F)c1C1SCC2=Nc3ccccc3CN21 (stereo not given)", "TARGET SYSTEM": "SF-295 CNS", "TGI": "> 100 µM"}
{"COMPOUND": "CN(C(=O)c1ccc(F)cc1C(F)(F)F)C1CCN(c2nnc(-c3ccnn3C)c3ccccc23)CC1", "TARGET SYSTEM": "SF-295 CNS", "TGI": "> 100 µM"}
{"COMPOUND": "CCOc1ccc(NC(=O)Nc2cc(C(C)C)ccc2C)cc1", "TARGET SYSTEM": "SF-295 CNS", "TGI": "25.4 µM"}
{"COMPOUND": "COc1cc2c(cc1OC)C13CCN4CC5=CCOC(CC(=O)O)C(C5CC41)C3N2 (stereo not given)", "TARGET SYSTEM": "SF-295 CNS", "TGI": "> 100 µM"}
{"COMPOUND": "CCOC(=O)CC(C)C(C#N)(OP1(=O)OC(c2ccccc2)C(C)N1C)c1ccccc1 (stereo not given)", "TARGET SYSTEM": "SF-295 CNS", "TGI": "> 100 µM"}
{"COMPOUND": "COCCNCC(O)Cn1c2ccc(Cl)cc2c2cc(Cl)ccc21 (stereo not given)", "TARGET SYSTEM": "SF-295 CNS", "TGI": "4.28 µM"}
{"COMPOUND": "COCCC(NC(=O)C(CC(C)C)NC(=O)OC(C)(C)C)C(N)=O (stereo not drawn) (Boc-Leu-[hSer](Me)-NH2; configuration not given here)", "TARGET SYSTEM": "SF-295 CNS", "TGI": "> 100 µM"}
{"COMPOUND": "O=C1CC(NC(=O)C(F)(F)F)c2c(Br)sc(N3CCC(c4ccccc4)CC3)c21 (stereo not given)", "TARGET SYSTEM": "SF-295 CNS", "TGI": "28.7 µM"}
{"COMPOUND": "CCOC(C)OCC#CCCBr (stereo not given)", "TARGET SYSTEM": "SF-295 CNS", "TGI": "> 100 µM"}
{"COMPOUND": "Cc1c(C)c(C)c(-n2c(=O)n(C)c(=O)n2C(C)(C)C)c(C)c1C", "TARGET SYSTEM": "SF-295 CNS", "TGI": "> 100 µM"}
{"COMPOUND": "C=CCN1C(=O)CS/C1=N\\NC(=O)c1c(C)nc2sccn12", "TARGET SYSTEM": "SF-295 CNS", "TGI": "> 100 µM"}
{"COMPOUND": "O=S(=O)(O)c1ccc(NN(c2c(O)ccc3ccccc23)S(=O)(=O)O)cc1", "TARGET SYSTEM": "SF-295 CNS", "TGI": "> 100 µM"}
{"COMPOUND": "O=C1C(=O)c2ccc(Br)cc2-c2cc(Br)ccc21", "TARGET SYSTEM": "SF-295 CNS", "TGI": "> 100 µM"}
{"COMPOUND": "O=C(CCN1CCCCC1CCO)Nc1ccc2c(c1)C(=O)c1ccc(NC(=O)CCN3CCCCC3CCO)cc1C2=O (stereo not given)", "TARGET SYSTEM": "SF-295 CNS", "TGI": "33.9 µM"}
